# test.system: LXR α LBD protein (Homo sapiens (Human), UniProt Q13133)
# Sequence (Q13133 209-447): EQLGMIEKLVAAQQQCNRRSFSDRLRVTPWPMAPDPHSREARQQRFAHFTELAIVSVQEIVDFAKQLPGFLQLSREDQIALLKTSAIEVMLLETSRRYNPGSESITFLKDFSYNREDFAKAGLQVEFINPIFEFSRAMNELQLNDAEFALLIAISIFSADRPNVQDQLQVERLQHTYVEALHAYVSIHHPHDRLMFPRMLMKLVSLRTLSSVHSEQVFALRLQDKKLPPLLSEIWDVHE
# experimental.details: LXR α radioligand binding assay (SPA, competition with [3H]TO901317)
# applied.conditions: read-out: LXRα Binding Ki
pKi: −log10 of the molar value.
Please mark 1.0 if the recorded pKi is equal to or greater than 6, and 0.0 if it falls below.

# compound, label.class
rows = [
    ("NS(=O)(=O)c1cccc(N2CCN(CC3CCN(CC(F)(F)F)CC3)[C@@H](c3ccccc3)C2)c1 (single isomer, unassigned)", 0.0),
    ("CS(=O)(=O)c1cccc(N2CCN(C[C@@H]3CCC(C(F)(F)F)OC3)[C@@H](c3ccc(F)cc3)C2)c1 (single isomer, unassigned)", 0.0),
    ("CS(=O)(=O)c1cccc(N2CCN(C[C@H]3CC[C@@H](C(F)(F)F)CC3)[C@H](c3ccccc3)C2)c1 (single isomer, unassigned)", 0.0),
    ("COC(=O)c1ccnc(N2CCN(c3ccc(F)c(S(C)(=O)=O)c3)C[C@H]2C(C)C)n1", 1.0),
    ("CS(=O)(=O)c1cc(N2CCN(C[C@H]3CC[C@@H](C(F)(F)F)CC3)[C@@H](c3ccc(F)cc3)C2)ccc1F", 1.0),
    ("NS(=O)(=O)c1cccc(N2CCN(C[C@H]3CC[C@@H](C(F)F)CC3)[C@@H](c3ccccc3)C2)c1 (single isomer, unassigned)", 1.0),
    ("CC(C)[C@@H]1CN(c2ccc(F)c(S(C)(=O)=O)c2)CCN1c1nccc(C2CC2)n1", 1.0),
    ("CCOC(=O)c1cnc(N2CCN(c3ccc(-c4nc(C)no4)c(S(C)(=O)=O)c3)C[C@H]2C(C)C)nc1C(F)(F)F", 0.0),
    ("CC(C)[C@H]1CN(c2ccc(C#N)c(S(C)(=O)=O)c2)CCN1C[C@H]1CC[C@@H](C(F)(F)F)CC1", 1.0),
    ("Cc1nc(N2CCN(c3ccc(F)c(S(C)(=O)=O)c3)C[C@H]2C(C)C)ncc1CO", 0.0),
    ("CCOC(=O)c1cnc(N2CCN(c3ccc(F)c(S(C)(=O)=O)c3)C[C@H]2CC(C)C)nc1C(F)(F)F", 1.0),
    ("COCCN(C)C(=O)c1cnc(N2CCN(c3ccc(F)c(S(C)(=O)=O)c3)C[C@H]2C(C)C)nc1C", 0.0),
    ("CCN(CCCO)C(=O)c1cnc(N2CCN(c3ccc(F)c(S(C)(=O)=O)c3)C[C@H]2C(C)C)nc1C(F)(F)F", 0.0),
    ("CC(C)[C@H]1CN(c2ccc(CO)c(S(C)(=O)=O)c2)CCN1CC1CCC(O)(C(F)(F)F)CC1 (some centres unmarked)", 1.0),
    ("CS(=O)(=O)c1cccc(N2CCN(CC3CCC(C(F)(F)F)O3)[C@@H](c3ccc(F)cc3)C2)c1 (some centres unmarked)", 0.0),
    ("CC(C)[C@@H]1CN(c2ccc(F)c(S(N)(=O)=O)c2)CCN1c1ncc(C(C)(C)O)c(C(F)(F)F)n1", 1.0),
    ("CC(C)[C@@H]1CN(c2cccc(S(C)(=O)=O)c2)CCN1C[C@H]1CC[C@H](C(F)(F)F)CC1 (single isomer, unassigned)", 0.0),
    ("Cc1ccc(N2CCN(c3cccc(S(C)(=O)=O)c3)C[C@H]2C(C)C)nc1C1CC1", 1.0),
    ("CC(C)[C@@H]1CN(c2cccc(S(C)(=O)=O)c2)CCN1c1ccc(C(F)(F)F)c(C2CC2)n1", 1.0),
    ("CS(=O)(=O)c1cccc(N2CCN(CC3(F)CCN(CC(F)(F)F)CC3)[C@@H](c3ccccc3)C2)c1 (single isomer, unassigned)", 0.0),
    ("CC(C)[C@@H]1CN(c2ccc(F)c(S(C)(=O)=O)c2)CCN1c1cnc(C(F)(F)F)cn1", 1.0),
    ("CC(C)c1ccc(CN2CCN(c3cccc(S(C)(=O)=O)c3)C[C@@H]2c2ccccc2)cc1", 0.0),
    ("CC(C)[C@@H]1CN(c2ccc(F)c(S(C)(=O)=O)c2)CCN1c1ncc(C(=O)N(C)CCCO)c(C(F)(F)F)n1", 0.0),
    ("CC(C)[C@@H]1CN(c2ccc(Cl)c(S(C)(=O)=O)c2)CCN1c1ncc(CO)c(C(F)(F)F)n1", 1.0),
    ("CC(C)[C@H]1CN(c2ccc(C#N)c(S(C)(=O)=O)c2)CCN1Cc1ccc(C(F)(F)F)cc1", 0.0),
    ("CC(C)c1ccc(CN2CCN(c3cccc(S(C)(=O)=O)c3)CC2c2ccccc2)cn1 (centres unmarked)", 0.0),
    ("CNS(=O)(=O)c1cc(N2CCN(c3ncc(C(C)O)c(C(F)(F)F)n3)[C@H](C(C)C)C2)ccc1F (some centres unmarked)", 1.0),
    ("CNC(=O)c1cnc(N2CCN(c3ccc(F)c(S(C)(=O)=O)c3)C[C@H]2C(C)C)nc1C(F)(F)F", 0.0),
]
